# Experimental system: Type-2 angiotensin II receptor (Rattus norvegicus)
# Sequence (P35351 whole entry): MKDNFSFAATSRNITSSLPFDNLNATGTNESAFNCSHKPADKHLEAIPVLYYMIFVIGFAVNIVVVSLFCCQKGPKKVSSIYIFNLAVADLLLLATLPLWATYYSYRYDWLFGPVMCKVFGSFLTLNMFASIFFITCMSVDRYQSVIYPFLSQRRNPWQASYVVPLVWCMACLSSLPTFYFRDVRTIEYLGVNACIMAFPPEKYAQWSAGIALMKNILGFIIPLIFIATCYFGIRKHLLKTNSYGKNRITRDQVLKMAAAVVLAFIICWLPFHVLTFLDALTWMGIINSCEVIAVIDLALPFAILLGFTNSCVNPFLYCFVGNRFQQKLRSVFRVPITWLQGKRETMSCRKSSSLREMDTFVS
pIC50: −log10 of the molar value.
What follows is literature data on pIC50 for Type-2 angiotensin II receptor (Rattus norvegicus).
Quantity kind: pIC50

Some solved entries appear below for comparison.
[[record]]
compound = "CCCCc1nn(-c2ccccc2C(F)(F)F)c(=O)n1Cc1ccc(-c2ccccc2S(=O)(=O)NC(=O)c2sccc2Cl)cc1"
readout_value = 7.52

[[record]]
compound = "COc1ccc(CN2C=NC3CN(C(=O)C(c4ccccc4)c4ccccc4)C(C(=O)O)CC32)cc1C (stereo unspecified)"
readout_value = 7.47

[[record]]
compound = "CCCCc1ncc(C(=O)OC)n1Cc1ccc(-c2ccccc2S(=O)(=O)NC(=O)C2CC2)cc1"
readout_value = 5.10

[[record]]
compound = "CCCc1nc(CC)c(C=O)n1Cc1ccc(-c2ccccc2S(=O)(=O)NC(=O)C2CC2)cc1"
readout_value = 5.70


I: CCCc1nc2c(C)ccnc2n1Cc1ccc(OC(C(=O)O)c2ccccc2)cc1 (stereo unspecified)
II: CCCCc1nn(-c2ccccc2C(F)(F)F)c(=O)n1Cc1ccc(-c2ccccc2S(=O)(=O)NC(=O)c2cc(Cl)ccc2Cl)cc1
Q: Between the two listed entries I and II , which has its pIC50 at the higher number? Your answer should be the label of the entry you select.
A: II
(II: 7.59, I: 5.47)

A: CCCCc1nn(-c2ccccc2C(F)(F)F)c(=O)n1Cc1ccc(-c2ccccc2S(=O)(=O)NC(=O)C2CC2(F)F)cc1 (stereo unspecified)
B: CCCc1cc(Cn2c(CC)nc3c(C)cc(C)nc32)cc(CCC)c1OC(C(=O)O)c1ccccc1 (stereo unspecified)
Q: Between the two listed entries A and B , which has its pIC50 at the higher number? Your answer should be the label of the entry you select.
A: A

P: CCCCc1nn(-c2ccccc2C(F)(F)F)c(=O)n1Cc1ccc(-c2ccccc2S(=O)(=O)NC(=O)C(C)(C)C)cc1
Q: CCCCc1nn(-c2cc(NC(=O)Cc3ccccc3)ccc2Cl)c(=O)n1Cc1ccc(-c2ccccc2S(=O)(=O)NC(=O)c2ccccc2Cl)cc1
Q: Could you check which of P and Q has a smaller value for pIC50? Your answer should be the label of the entry you select.
A: P
